# inhibition at 0.01 µM listing for each entry below
Biological target: JAK1 (Homo sapiens, UniProt P23458)
Construct: purchased Thermo Fisher Scientific
Sequence (P23458 whole entry): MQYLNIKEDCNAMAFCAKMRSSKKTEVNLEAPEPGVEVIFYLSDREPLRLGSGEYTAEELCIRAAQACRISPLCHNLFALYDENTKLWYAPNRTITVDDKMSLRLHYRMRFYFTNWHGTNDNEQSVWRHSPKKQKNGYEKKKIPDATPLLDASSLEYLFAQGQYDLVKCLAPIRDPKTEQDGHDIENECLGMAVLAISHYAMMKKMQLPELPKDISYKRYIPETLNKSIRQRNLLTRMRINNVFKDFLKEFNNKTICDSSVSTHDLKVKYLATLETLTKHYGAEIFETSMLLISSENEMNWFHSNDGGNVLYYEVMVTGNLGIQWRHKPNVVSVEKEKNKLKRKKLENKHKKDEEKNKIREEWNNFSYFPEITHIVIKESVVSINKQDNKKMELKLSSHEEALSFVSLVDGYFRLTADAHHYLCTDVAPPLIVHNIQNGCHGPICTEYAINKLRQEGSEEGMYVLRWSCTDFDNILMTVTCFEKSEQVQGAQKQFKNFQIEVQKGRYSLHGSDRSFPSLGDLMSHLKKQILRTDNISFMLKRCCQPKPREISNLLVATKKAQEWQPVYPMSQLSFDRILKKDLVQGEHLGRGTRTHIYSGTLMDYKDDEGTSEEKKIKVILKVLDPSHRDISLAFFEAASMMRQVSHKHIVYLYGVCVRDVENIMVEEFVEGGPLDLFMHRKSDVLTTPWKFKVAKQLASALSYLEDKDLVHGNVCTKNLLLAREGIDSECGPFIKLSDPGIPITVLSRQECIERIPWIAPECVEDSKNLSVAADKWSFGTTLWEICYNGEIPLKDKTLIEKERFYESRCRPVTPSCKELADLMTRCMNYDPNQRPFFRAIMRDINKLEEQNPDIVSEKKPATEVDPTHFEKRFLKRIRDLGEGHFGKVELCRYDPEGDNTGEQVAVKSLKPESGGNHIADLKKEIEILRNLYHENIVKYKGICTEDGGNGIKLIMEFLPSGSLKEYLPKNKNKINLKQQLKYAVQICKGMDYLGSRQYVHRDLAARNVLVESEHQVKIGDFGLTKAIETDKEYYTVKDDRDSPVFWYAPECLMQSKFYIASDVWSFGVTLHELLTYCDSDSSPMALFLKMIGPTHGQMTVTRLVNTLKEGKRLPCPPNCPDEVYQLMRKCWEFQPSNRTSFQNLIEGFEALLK
Experiment: Z'-LYTE JAK1 kinase screen (Thermo Fisher Scientific)
Assay type: biochemical
Details: test compound 10 nM; 1% DMSO; ATP at Km apparent
OBSERVABLE: inhibition at 0.01 µM

>  <COMPOUND>
CN(c1ncnc2[nH]ccc12)C1CC2(C1)CC(S(N)(=O)=O)C2 (stereo not drawn)

>  <DATA_VALUE>
13%

$$$$
>  <COMPOUND>
CNS(=O)(=O)C1CC2(CC(N(C)c3ncnc4[nH]ncc34)C2)C1 (stereo not drawn)

>  <DATA_VALUE>
2%

$$$$
>  <COMPOUND>
CC(C)CNS(=O)(=O)C1CC2(CC(N(C)c3ncnc4[nH]ccc34)C2)C1 (stereo not drawn)

>  <DATA_VALUE>
42%

$$$$
>  <COMPOUND>
CN(c1ncnc2[nH]ccc12)C1CC2(CC(NS(=O)(=O)c3ccccc3)C2)C1 (stereo not drawn)

>  <DATA_VALUE>
11%

$$$$
>  <COMPOUND>
CN(c1ncnc2[nH]ccc12)C1CC2(C1)CC(S(=O)(=O)NC1CCCC1)C2 (stereo not drawn)

>  <DATA_VALUE>
52%

$$$$
>  <COMPOUND>
CN(c1ncnc2[nH]ccc12)C1CC2(C1)CC(S(=O)(=O)N1CCCC1)C2 (stereo not drawn)

>  <DATA_VALUE>
43%

$$$$
